# Assay Details: chemical genetic growth profiling, strain panel (AID 1159580);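 note: tested at 20 µM; growth read once vehicle control cultures reached saturation at 30 °C; lower values mean less growth of the strain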
# Stated Conditions: S. cerevisiae deletion strains, growth OD, locus YDR137W, strain rgp1
About 2,000 (36%) of roughly 5,500 compounds were called active. About 18% were inconclusive and are not listed. Cut-off read from the data, not from the text of the source: active = normalized growth mostly below about 0.91 (no sharp cut-off); inconclusive = no clear call, values can overlap the other calls; inactive = mostly above about 0.92. This is one part of the list.
Response enum: active, inactive

Example entries and their recorded answers appear below.
Ask | Hi team, can someone confirm the assay call for `O=[N+]([O-])c1ccc(O)c([N+](=O)[O-])c1` ?
Reply | inactive

Ask | Continue with `C=C[C@@H](C1=CC(=O)C(OC)=C(OC)C1=O)c1ccccc1`
Reply | active

Further cases:
Ask | Hi team, can someone confirm the assay call for CC1(C)CCCC2(C)C3C1[C@@H](O)C2(C)C[C@H]3O (stereo partly drawn) ?
Reply | inactive

Ask | Continue with `C=C(CC)C(=O)c1ccc(OCC(=O)O)c(Cl)c1Cl`
Reply | inactive

Ask | Continue with CC(C)=CCC[C@](C)(O)C1CC=C(C)CC1 (stereo partly drawn)
Reply | inactive

Ask | Continue with `O=[N+]([O-])c1cc([As](=O)(O)O)ccc1O`
Reply | inactive

Ask | Continue with `CC/C(=C(\c1ccccc1)c1ccc(OCCN(C)C)cc1)c1ccccc1`
Reply | active

Ask | Continue with `CCOC(=O)c1oc2c(OC)c(O)cc(O)c2c(=O)c1-c1cc(OC)c(OC)c(OC)c1`
Reply | active

Ask | Continue with C=C(C)C1CC=C(CO)CC1 (stereo not drawn)
Reply | inactive

Ask | Continue with `C=C(C)[C@H]1CC=C(C(=O)O)CC1`
Reply | inactive

Ask | Continue with CN1C(CC(=O)c2ccccc2)CCCC1CC(O)c1ccccc1 (stereo not drawn)
Reply | inactive

Ask | Continue with CC(=O)c1c(O)c(C)c(O)c2c1OC1=CC(=O)C(C(C)=O)C(=O)C12C (stereo not drawn)
Reply | inactive

Ask | Continue with C=CC(C1=CC(=O)C(OC)=CC1=O)c1ccccc1 (stereo not drawn)
Reply | active

Ask | Continue with `CCOP(=S)(OCC)SCn1c(=O)oc2cc(Cl)ccc21`
Reply | active

Ask | Continue with CCCCC(CC)CN1CN(CC(CC)CCCC)CC(C)(N)C1 (stereo not drawn)
Reply | active

Ask | Continue with CCC(Cc1c(I)cc(I)c(N)c1I)C(=O)O (stereo not drawn)
Reply | active

Ask | Continue with C=CC(C1=CC(=O)C(OC)=CC1=O)c1ccc(OC)cc1 (stereo not drawn)
Reply | active

Ask | Continue with `NCCCC[C@H](N[C@@H](CCc1ccccc1)C(=O)O)C(=O)N1CCC[C@H]1C(=O)O`
Reply | inactive

Ask | Continue with `CCN(CC)CCOc1ccc2c(c1)C(=O)c1cc(OCCN(CC)CC)ccc1-2`
Reply | inactive

Ask | Continue with `Oc1c(I)cc(Cl)c2cccnc12`
Reply | active

Ask | Continue with `Oc1c(I)cc(I)c2cccnc12`
Reply | active

Ask | Continue with CC(=O)O[C@H]1C[C@@H](OC(C)=O)C(C)(C)C2C[C@@H](OC(C)=O)[C@@]3(C)C4=CC(=O)O[C@@H](c5ccoc5)[C@]4(C)CCC3[C@]21C (stereo partly drawn)
Reply | inactive

Ask | Continue with COC(=O)C[C@H]1C(C)(C)C(=O)[C@@H]2CC3=C4CC(=O)O[C@@H](c5ccoc5)[C@]4(C)CCC3[C@@]1(C)C2=O (stereo partly drawn)
Reply | inactive
